# Organism: Homo sapiens
# Test Details: To identify inhibition of the IFN signalling (Jak-Stat) pathway via expression of an eGFP reporter gene under the control of an IFN-stimulated response element (ISRE) containing MxA promoter.
# Type: functional
# Design: scale not given: direction of the effect not stated beside the values
# Recorded Conditions: 30 µM

[
  {
    "Compound": "CC(=O)N1CCO[C@@H]2CN(C(=O)c3cc(C)oc3C)CC[C@@H]2C1",
    "Percent Effect": "19.1%"
  },
  {
    "Compound": "CCCc1cc(=O)n(CC(N)=O)c(-n2nc(C)cc2C)n1",
    "Percent Effect": "32%"
  },
  {
    "Compound": "COc1ccc2c(c1)CN(Cc1nc3ccsc3c(=O)[nH]1)CC2",
    "Percent Effect": "24.5%"
  },
  {
    "Compound": "CC(=O)N1CCc2c(nc(-c3ccccn3)nc2N(C)CC(O)CO)C1 (centres undefined)",
    "Percent Effect": "-12.5%"
  }
]

====

# Test System: Proteasome subunit beta (Trypanosoma cruzi)
# Test Details: Trypanosoma cruzi proteasome chymotrypsin-like activity (TcProtChymo) assay. Also: in the data most compounds retested in dose-response had high values.
# Assay type: functional
# Design: scale not given: direction of the effect not stated beside the values
# Recorded Conditions: 9.37 µM

[
  {
    "Molecule": "c1ccc(-n2ncc(CN3CCCC3Cn3cccn3)n2)cc1 (stereo not given)",
    "Percent Effect (%)": 5.44
  },
  {
    "Molecule": "CN(C)C(=O)CCCNC(=O)C(c1cccc(F)c1)N(C)C (stereo not given)",
    "Percent Effect (%)": 11.7
  },
  {
    "Molecule": "CC(C)c1cc(NC(=O)CN2CCC(N3CCNC3=O)CC2)on1",
    "Percent Effect (%)": 0.877
  },
  {
    "Molecule": "Cc1ccc(-n2nnc(C(=O)NS(C)(=O)=O)c2C2CC2)cc1",
    "Percent Effect (%)": -0.179
  },
  {
    "Molecule": "COc1cccc2c1OCC(C(=O)N(C)CCCc1cnn(C)c1)C2 (stereo not given)",
    "Percent Effect (%)": 4.79
  },
  {
    "Molecule": "O=C1NCCN(CC2CC2)C12CCN(Cc1ccc3c(c1)OCO3)CC2",
    "Percent Effect (%)": 16.9
  },
  {
    "Molecule": "CCc1nc(C2CCCN(C(=O)c3cn(C)nc3C)C2)no1 (stereo not given)",
    "Percent Effect (%)": 5.57
  },
  {
    "Molecule": "Cc1cnccc1CN1CC[C@@](C)(O)[C@H](Oc2ccccc2)C1",
    "Percent Effect (%)": 12.9
  },
  {
    "Molecule": "CN1CC(c2ccccc2)CC12CCN(C(=O)c1c(Cl)cnn1C)CC2 (stereo not given)",
    "Percent Effect (%)": 10.3
  },
  {
    "Molecule": "O=C(Cc1cccs1)N1CC[C@H]2[C@@H]1CCC(=O)N2c1cccnc1",
    "Percent Effect (%)": 16.1
  },
  {
    "Molecule": "Cc1nc(C)c(C(=O)NCCNc2ncccc2C#N)s1",
    "Percent Effect (%)": 18.4
  },
  {
    "Molecule": "Cc1nccn1C1CCCN(C(=O)COCC(F)(F)F)C1 (stereo not given)",
    "Percent Effect (%)": 0.597
  },
  {
    "Molecule": "CN(C)CC1CN(Cc2ccc3c(c2)OCO3)Cc2nccn2C1 (stereo not given)",
    "Percent Effect (%)": 5.56
  },
  {
    "Molecule": "CCc1nc(C2CCCN2C(=O)C2=COCC2)no1 (stereo not given)",
    "Percent Effect (%)": -2.46
  },
  {
    "Molecule": "COc1cccc(CN2CCOC(Cn3nc(C)cc3C)C2)c1 (stereo not given)",
    "Percent Effect (%)": 18.2
  },
  {
    "Molecule": "Cc1ccc(CNC(=O)CN2CCCC(Cn3cncn3)C2)s1 (stereo not given)",
    "Percent Effect (%)": 22.3
  },
  {
    "Molecule": "O=C(Nc1nnc(C2CC2)s1)NC1CCN(Cc2ccccc2)C1 (stereo not given)",
    "Percent Effect (%)": 4.01
  },
  {
    "Molecule": "CCN(C)c1ncnc2c1CCN(Cc1ccc(OC)cc1)CC2",
    "Percent Effect (%)": 13.5
  },
  {
    "Molecule": "COc1ccc(CCC(=O)Nc2cccnc2N2CCCC2)cc1Br",
    "Percent Effect (%)": 3.42
  },
  {
    "Molecule": "COc1ccc(CC(=O)N2CCCN(c3ccc(C#N)cc3)CC2)cc1",
    "Percent Effect (%)": 11.8
  },
  {
    "Molecule": "Cc1ncnc2c1CCN(Cc1ccccn1)CC2",
    "Percent Effect (%)": 1.46
  },
  {
    "Molecule": "CCN(Cc1cccc2c1OCO2)C(=O)Nc1ccncc1",
    "Percent Effect (%)": 2.81
  },
  {
    "Molecule": "CC(C)c1nc(C2CCCN2Cc2ccccc2C#N)no1 (stereo not given)",
    "Percent Effect (%)": -4.22
  },
  {
    "Molecule": "CCS(=O)(=O)c1ccc(N2CCC(NC(=O)CCC(C)C)CC2)cc1",
    "Percent Effect (%)": 6.8
  },
  {
    "Molecule": "COCCCN(C)C1CCCN(Cc2noc(C)n2)C1 (stereo not given)",
    "Percent Effect (%)": -3.05
  },
  {
    "Molecule": "Cc1ccnc(OCC(=O)N2CCC(C(N)=O)CC2)n1",
    "Percent Effect (%)": 11.4
  },
  {
    "Molecule": "CN(C)CCOCC1CN(Cc2ccsc2)Cc2ccnn2C1 (stereo not given)",
    "Percent Effect (%)": 2.21
  },
  {
    "Molecule": "COCC(=O)N1CC[C@@H](N2CCOCC2)[C@@H]1Cc1ccccc1",
    "Percent Effect (%)": 22
  },
  {
    "Molecule": "Cc1ccc(C(=O)NS(=O)(=O)c2cccc3cnccc23)c(=O)[nH]1",
    "Percent Effect (%)": 6.64
  },
  {
    "Molecule": "CCS(=O)(=O)N1CCC2(CC1)CC(Oc1ccccn1)CO2 (stereo not given)",
    "Percent Effect (%)": 11
  }
]
